molecular target: PAD3 (Homo sapiens); construct: made in house; test: Inactivation kinetics, PAD3; type: biochemical; settings: kinact/KI relative to least inhibited isozyme (1.0)
Sequence (Q9ULW8 whole entry): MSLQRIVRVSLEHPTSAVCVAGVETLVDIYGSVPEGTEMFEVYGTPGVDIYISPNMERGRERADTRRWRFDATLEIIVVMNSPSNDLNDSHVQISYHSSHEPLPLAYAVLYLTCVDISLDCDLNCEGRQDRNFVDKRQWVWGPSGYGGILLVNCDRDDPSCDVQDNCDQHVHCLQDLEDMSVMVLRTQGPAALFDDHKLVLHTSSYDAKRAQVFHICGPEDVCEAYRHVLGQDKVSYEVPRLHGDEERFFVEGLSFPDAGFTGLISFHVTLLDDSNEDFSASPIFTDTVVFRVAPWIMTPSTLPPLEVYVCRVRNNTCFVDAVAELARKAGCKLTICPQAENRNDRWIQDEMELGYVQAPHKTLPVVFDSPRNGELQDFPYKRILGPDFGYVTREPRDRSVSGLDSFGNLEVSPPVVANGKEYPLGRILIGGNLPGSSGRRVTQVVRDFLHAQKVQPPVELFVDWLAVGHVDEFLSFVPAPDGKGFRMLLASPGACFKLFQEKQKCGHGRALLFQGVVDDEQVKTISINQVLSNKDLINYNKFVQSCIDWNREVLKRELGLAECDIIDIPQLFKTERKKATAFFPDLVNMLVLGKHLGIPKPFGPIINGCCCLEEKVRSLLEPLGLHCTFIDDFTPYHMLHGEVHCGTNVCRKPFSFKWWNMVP
Give Fold PAD3 Selectivity for every item shown.
Numbers only, in fold.

| Compound | Fold PAD3 Selectivity, fold |
| --- | --- |
| CCn1c([C@H](CCCNC(=N)CCl)NC(=O)c2cccc3c2C(=O)NC3)nc2cc(OC)ccc21 [Compound 7v] | 4.4 |
| N=C(CF)NCCC[C@H](NC(=O)c1ccc(-c2ccccc2)cc1)c1nc2cc(F)c(F)cc2[nH]1 [Compound 5q] | 1.0 |
| COc1ccc2[nH]c([C@H](CCCNC(=N)CF)NC(=O)c3cccc4c3C(=O)NC4)nc2c1 [Compound 7s] | 1.0 |
| Cn1c([C@H](CCCNC(=N)CF)NC(=O)c2ccc(-c3ccccc3)cc2)nc2ccccc21 [Compound 5g] | 3.6 |

For the 3 compounds below, give their Fold PAD3 Selectivity values.
1. COc1cccc2c1nc([C@H](CCCNC(=N)CCl)NC(=O)c1cccc3c1C(=O)NC3)n2C [Compound 7l]
2. CCn1c([C@H](CCCNC(=N)CCl)NC(=O)c2ccc(-c3ccccc3)cc2)nc2ccccc21 [Compound 5j]
3. CCn1c([C@H](CCCNC(=N)CF)NC(=O)c2ccccc2C(=O)OC(C)(C)C)nc2ccccc21 [Compound 9c]

[1.0, 4.1, 7.0]
